Assay: isolated perfused respiring rat lung (IPRLu) model, intratracheal instillation
Settings: total dose in perfusate at 20 mins; mean (n = 2), range in brackets
Kindly state %TDiP for each of the entries shown.

%TDiP recorded for this molecule, CCCC1O[C@@H]2C[C@H]3[C@@H]4CCC5=CC(=O)C=C[C@]5(C)[C@H]4[C@@H](O)C[C@]3(C)[C@]2(C(=O)CO)O1 (some centres unmarked) [Budesonide] , is 77 (76–79) %

%TDiP recorded for this molecule, OCc1cc(C(O)CNCCCCCCOCCCCc2ccccc2)ccc1O (centres unmarked) [Salmeterol] , is 15 (6–24) %

%TDiP recorded for this molecule, COc1ccc(C[C@@H](C)NC[C@H](O)c2ccc(O)c(NC=O)c2)cc1.COc1ccc(C[C@@H](C)NC[C@H](O)c2ccc(O)c(NC=O)c2)cc1.O=C(O)/C=C/C(=O)O [Formoterol Fumerate] , is 47 (42–52) %

%TDiP recorded for this molecule, CCc1cc2c(cc1CC)CC(NC[C@H](O)c1ccc(O)c3[nH]c(=O)ccc13)C2 [Indacaterol] , is 11 (10,11) %

%TDiP recorded for this molecule, C=CC[C@@H]1/C=C(\C)C[C@H](C)C[C@H](OC)[C@H]2O[C@@](O)(C(=O)C(=O)N3CCCC[C@H]3C(=O)O[C@H](/C(C)=C/[C@@H]3CC[C@@H](O)[C@H](OC)C3)[C@H](C)[C@@H](O)CC1=O)[C@H](C)C[C@@H]2OC [Tacrolimus (prograf), Tacrolimus] , is 38 (38) %

%TDiP recorded for this molecule, CC(C)(O)c1ccccc1CC[C@@H](SCC1(CC(=O)O)CC1)c1cccc(/C=C/c2ccc3ccc(Cl)cc3n2)c1 [Montelukast] , is 67 (57–78) %

%TDiP recorded for this molecule, C[N+]1(C)[C@@H]2C[C@@H](OC(=O)C(O)(c3cccs3)c3cccs3)C[C@H]1[C@@H]1O[C@@H]12 [Tiotropium Bromide] , is 61 (59–62) %

%TDiP recorded for this molecule, CCN(CC)CC(=O)Nc1c(C)cccc1C [Lidocaine] , is 75 (64–82) %

----------
Kindly state half-life for each of the entries shown.
Experiment: isolated perfused respiring rat lung (IPRLu) model, intratracheal instillation
Conditions: male, CD, rat, other: intratracheal instillation, 100 μL, pH 7.4
Report as a plain number; the unit min is understood.

half-life recorded for this molecule, N=C(N)NC(=O)c1nc(Cl)c(N)nc1N [Amiloride] , is 8

half-life recorded for this molecule, CC1(C)O[C@@H]2C[C@H]3[C@@H]4C[C@H](F)C5=CC(=O)C=C[C@]5(C)[C@H]4[C@@H](O)C[C@]3(C)[C@]2(C(=O)CO)O1 [Flunisolide] , is 15

half-life recorded for this molecule, CC(=O)N[C@H]1[C@H]([C@H](O)[C@H](O)CO)OC(C(=O)O)=C[C@@H]1N=C(N)N [Zanamivir] , is 7
